Listing of entries alongside the reported DH82 pSTAT Assay, Pre-treatment IC50.
measuredOn: Recombinant canine IL-31 produced in CHO cells (canine)
Sequence (chain, as listed by the source limits assumed, form in doubt): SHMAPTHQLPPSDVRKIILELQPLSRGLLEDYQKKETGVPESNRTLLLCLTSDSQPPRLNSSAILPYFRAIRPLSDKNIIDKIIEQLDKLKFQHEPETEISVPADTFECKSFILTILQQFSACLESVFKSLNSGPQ
measurementNotes: cell-based or functional assay
State the answer as a number, implicitly in µg/ml.

Mouse 11E12 (antibody, V domains shown) VH: QVQLQQSGAELVKPGASVKLSCKASGYTFKYYDINWVRQRPEQGLEWIGWIFPGDGGTKYNETFKGKATLTTDKSSSTAYMQLSRLTSEDSAVYFCARGGTSVIRDAMDYWGQGTSVTVSS VL: DIVLTQSPASLAVSLGQRATISCRASESVDNYGISFMHWYQQKPGQPPKLLIYRASNLESGIPARFSGSGSRTDFTLTINPVETDDVATYYCQQSNKDPLTFGAGTKLELK	2.28

// switching to the query binder
The binder Caninized 11E12 FW2 (antibody, V domains shown) VH: EVQLVQSGAEVKKPGASVKVSCKTSGYTFKYYDINWVRQAPGAGLDWMGWIFPGDGGTKYNETFKGRVTLTADTSTSTAYMELSSLRAGDIAVYYCARGGTSVIRDAMDYWGQGTLVTVSS VL: DIVMTQTPLSLSVSPGEPASISCRASESVDNYGISFMHWYQQKPGQPPKLLIYRASNLESGVPDRFSGSGSGTDFTLRISRVEADDAGVYYCQQSNKDPLTFGAGTKLEIKR showed DH82 pSTAT Assay, Pre-treatment IC50 equal to 5.31
